Biological target: T1, CH2-4 constant domains of human IgE linked to a transmembrane protein, on 293 cells (human, UniProt P01854-1 104-428)
T1 construct: domain: CH2-4 constant domains; also called human IgE-expressing 293 cells
T1 sequence (P01854 other isoform, or with tags, fused parts or gaps): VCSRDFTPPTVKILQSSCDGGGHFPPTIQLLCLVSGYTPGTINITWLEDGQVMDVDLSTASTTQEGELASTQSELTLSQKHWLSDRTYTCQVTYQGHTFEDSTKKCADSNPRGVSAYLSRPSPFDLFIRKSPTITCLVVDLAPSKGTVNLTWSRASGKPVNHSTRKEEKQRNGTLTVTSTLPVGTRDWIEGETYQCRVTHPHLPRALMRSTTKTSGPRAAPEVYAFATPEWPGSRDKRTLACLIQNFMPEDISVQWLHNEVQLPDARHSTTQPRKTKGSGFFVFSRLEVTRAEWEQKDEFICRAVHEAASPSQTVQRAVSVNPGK
Assay: flow cytometry, 293 cells expressing human IgE CH2-4
Measurement Kind: pKd
Conceptually, pKd converts a concentration in mol/L into minus its log10.

{"Binder": "hzB10v4-NNT (Fc fusion, monomeric) VHH-Fc: EVQLVQSGGELVQAGGSLRLSCVASGLTFSSYNMGWLRQAPGKEREFVGMSGSSSTSTYYAESVKGRFTISRDNAKNTLYLQMSSLRAEDTAVYYCAARRMLSTYWSDRSWDFWGQGTQVTVKPGGPSVFLFPPKPKDTLMISRTPEVTCVVVDVSHEDPEVKFNWYVDGVEVHNAKTKPREEQYNSTYRVVSVLTVLHQDWLNGKEYKCKVSNKALPAPIEKTISKAKGQPREPQVYTLPPSRDELTKNQVNLTCLVKGFYPSDIAVEWESNGQPENNYKTTPPVLDSDGSFFLNSTLTVDKSRWQQGNVFSCSVMHEALHNHYTQKSLSLSPGK", "Result Number": 7.13}

As a next step, examine the binder that follows.
Value lookup for pKd; key = hzB10v15-NNT (Fc fusion, monomeric) VHH-Fc: EVQLLESGGGEVQPGGSLRLSCVASGLTFSSYNMGWVRQAPGKEREFVSLSGSSSTSTYYADSVKGRFTISRDNSKNTVYLQMNSLKPEDTAVYYCAARRLLSTYWSDRSWDFWGQGTQVTVEPGGPSVFLFPPKPKDTLMISRTPEVTCVVVDVSHEDPEVKFNWYVDGVEVHNAKTKPREEQYNSTYRVVSVLTVLHQDWLNGKEYKCKVSNKALPAPIEKTISKAKGQPREPQVYTLPPSRDELTKNQVNLTCLVKGFYPSDIAVEWESNGQPENNYKTTPPVLDSDGSFFLNSTLTVDKSRWQQGNVFSCSVMHEALHNHYTQKSLSLSPGK 8.00

Ref: patent US20250163186A1
